- test.target: Recombinant human c-Cbl (aa 47-435) (Homo sapiens)
- Sequence (P22681 47-435): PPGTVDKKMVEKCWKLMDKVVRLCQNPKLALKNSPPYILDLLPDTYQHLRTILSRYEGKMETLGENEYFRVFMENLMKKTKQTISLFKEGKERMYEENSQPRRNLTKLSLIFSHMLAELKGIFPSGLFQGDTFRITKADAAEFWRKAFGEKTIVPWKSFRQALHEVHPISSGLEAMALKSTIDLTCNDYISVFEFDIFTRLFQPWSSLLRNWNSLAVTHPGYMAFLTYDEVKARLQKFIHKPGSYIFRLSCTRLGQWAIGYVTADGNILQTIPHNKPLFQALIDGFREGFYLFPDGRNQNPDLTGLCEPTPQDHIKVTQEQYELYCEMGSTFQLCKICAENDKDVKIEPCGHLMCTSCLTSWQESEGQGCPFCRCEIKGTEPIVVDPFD
- assay.comment: c-Cbl Biochemical Assay (TR-FRET)
- condition.description: hc-Cbl Biochemical Assay (TR-FRET); read-out: TR-FRET hcCbl IC50
pIC50: −log10 of the molar value.
Parameter pIC50: see the listing below.

Look up pIC50: Cn1cnnc1-c1ccccc1-c1cccc(-c2cc(C(F)(F)F)c[nH]c2=O)c1
4.30 to 5.00

Consider next the compound Cn1cnnc1-c1cc(Cl)ccc1-c1cc(-c2nc3cc(CNCC4(O)CCC4)ccc3o2)nc(C2CC2)c1 in the same way.
> 6.70

Consider next the compound COC[C@H](C)NCc1cc(F)c2oc(-c3cc(-c4ccc(F)cc4-c4nncn4C)cc(C4CC4)n3)nc2c1 in the same way.
> 6.70

Consider now this further compound.
Look up pIC50: Cn1cnnc1-c1cc(F)ccc1-c1cccc(-c2nc3cc(CNCC4(O)CCC4)cc(F)c3o2)c1
> 6.70

---

- test.target: Recombinant human c-Cbl (aa 47-435) (Homo sapiens, UniProt P22681)
- assay.comment: c-Cbl Biochemical Assay (TR-FRET)
- condition.description: hc-Cbl Biochemical Assay (TR-FRET); read-out: TR-FRET hcCbl IC50
Parameter IC50: see the listing below.

Look up IC50: Cn1cnnc1-c1cc(F)ccc1-c1cccc(-c2nc3cc(CNCC(C)(C)F)cc(C(F)(F)F)c3o2)c1
< 200 nM

Consider next the compound Cn1cnnc1-c1cc(F)ccc1-c1cccc(-c2nc3cc(CNCC4(O)CC(F)(F)C4)cc(C(F)(F)F)c3o2)c1 in the same way.
< 200 nM

Consider next the compound COc1cc(CNC2CCC2)cc2nc(-c3cccc(-c4ccc(F)cc4-c4nncn4C)c3)oc12 in the same way.
200 to 1000 nM

Consider next the compound CCNc1cc(-c2c(-c3nncn3C)cnn2C)cc(-c2nc3cc(CN4CCC5(CC5)C4)cc(C(F)(F)F)c3[nH]2)n1 in the same way.
10000 to 50000 nM

Consider next the compound Cc1cc([C@@H](C)NCC2CCC2)cc2nc(-c3cc(-c4ccc(F)cc4-c4nncn4C)cc(C4CC4)n3)oc12 in the same way.
< 200 nM

New cases:
Look up IC50: CC(Cc1nncn1C)c1cccc(-c2nc3ccc(OCCN4CCCC4)c(C(F)(F)F)c3[nH]2)c1 (stereo not shown)
10000 to 50000 nM

Consider next the compound Cn1cnnc1-c1cc(F)ccc1-c1cccc(-c2nc3cc(CN[C@@H]4CCC[C@]4(C)O)cc(C(F)(F)F)c3o2)c1 in the same way.
< 200 nM

Consider next the compound COc1cc(CNCC2(O)CCC2)cc2nc(-c3cccc(-c4ccc(F)cc4-c4nncn4C)c3)oc12 in the same way.
< 200 nM

Consider next the compound Cn1cnnc1-c1cc(F)ccc1-c1cccc(-c2nc3cc(CNC4CC5(CCC5)C4)cc(C(F)(F)F)c3o2)c1 in the same way.
< 200 nM
